These measurements were taken from patent US4666892A.

Assay: Solubility in water
Type: physicochemical
Conditions: water, at 28°; read-out: Solubility
Can you tell me solubility for the items I'm about to list?
Provide the reading as a plain figure in mg/mL.

Challenge: Need solubility, item Cc1cn([C@@H]2O[C@H](CO)[C@@H](O)[C@@H]2F)c(=O)[nH]c1=O [FMAU]
Response given: 81

Challenge: Need solubility, item O=c1[nH]c(=O)n([C@@H]2O[C@H](CO)[C@@H](O)[C@@H]2F)cc1I [FIAU]
Response given: 4

---

Assay: Solubility in water
Type: physicochemical
Conditions: water, at 21°; read-out: Solubility
PROPERTY_NAME: solubility (µg/mL)
Provide the reading as a plain figure in µg/mL.

Challenge: Need solubility, item Nc1nc(=O)n([C@@H]2O[C@H](CO)[C@@H](O)[C@@H]2F)cc1I [FIAC]
Response given: 7200

---

Target: WHV DNA polymerase (Woodchuck hepatitis B virus, UniProt P03160)
Construct: WHV was obtained from a serum pool of five woodchucks (Marmota monax) chronic carriers of the virus
Sequence (P03160 whole entry): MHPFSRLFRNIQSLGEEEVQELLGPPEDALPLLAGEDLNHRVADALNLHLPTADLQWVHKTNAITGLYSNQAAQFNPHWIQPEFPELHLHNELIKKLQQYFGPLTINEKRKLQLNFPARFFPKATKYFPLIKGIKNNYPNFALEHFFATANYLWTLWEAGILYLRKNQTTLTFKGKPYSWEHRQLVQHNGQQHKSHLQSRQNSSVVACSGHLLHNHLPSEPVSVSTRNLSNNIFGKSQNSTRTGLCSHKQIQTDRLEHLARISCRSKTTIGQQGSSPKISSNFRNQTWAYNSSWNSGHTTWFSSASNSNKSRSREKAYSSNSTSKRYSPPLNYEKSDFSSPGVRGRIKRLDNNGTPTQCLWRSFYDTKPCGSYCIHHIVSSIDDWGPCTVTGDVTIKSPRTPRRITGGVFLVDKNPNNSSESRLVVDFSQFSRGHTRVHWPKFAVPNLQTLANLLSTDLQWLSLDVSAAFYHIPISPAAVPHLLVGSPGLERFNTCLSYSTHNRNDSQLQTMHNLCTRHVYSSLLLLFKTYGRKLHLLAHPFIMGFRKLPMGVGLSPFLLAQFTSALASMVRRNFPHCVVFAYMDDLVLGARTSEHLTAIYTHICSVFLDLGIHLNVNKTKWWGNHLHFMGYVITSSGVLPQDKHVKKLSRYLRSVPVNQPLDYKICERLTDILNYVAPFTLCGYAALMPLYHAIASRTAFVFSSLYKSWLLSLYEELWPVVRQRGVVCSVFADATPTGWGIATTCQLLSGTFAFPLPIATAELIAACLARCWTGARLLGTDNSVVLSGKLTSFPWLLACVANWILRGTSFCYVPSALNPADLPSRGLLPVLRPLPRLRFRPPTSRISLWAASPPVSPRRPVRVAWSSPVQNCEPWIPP
Test: WHV endogenous DNA polymerase assay, inhibition by nucleoside triphosphate analogs
Settings: WHV DNA polymerase; radioactive triphosphate at 2 to 3 times Km, remaining nucleotides 50 uM; read-out: ID50 (concentration of triphosphate required to inhibit 50 percent of DNA polymerase)
PROPERTY_NAME: IC50 (nM)
Provide the reading as a plain figure in nM.

Challenge: Need IC50, item Nc1nc(=O)n([C@@H]2O[C@H](COP(=O)(O)OP(=O)(O)OP(=O)(O)O)[C@@H](O)[C@@H]2F)cc1I [FIACTP]
Response given: 50

---

Target: HBV DNA polymerase (Hepatitis B virus genotype D subtype ayw, UniProt P03156)
Construct: HBV particles containing DNA polymerase activity were purified from the serum of an immunosuppressed patient
Sequence (P03156 whole entry): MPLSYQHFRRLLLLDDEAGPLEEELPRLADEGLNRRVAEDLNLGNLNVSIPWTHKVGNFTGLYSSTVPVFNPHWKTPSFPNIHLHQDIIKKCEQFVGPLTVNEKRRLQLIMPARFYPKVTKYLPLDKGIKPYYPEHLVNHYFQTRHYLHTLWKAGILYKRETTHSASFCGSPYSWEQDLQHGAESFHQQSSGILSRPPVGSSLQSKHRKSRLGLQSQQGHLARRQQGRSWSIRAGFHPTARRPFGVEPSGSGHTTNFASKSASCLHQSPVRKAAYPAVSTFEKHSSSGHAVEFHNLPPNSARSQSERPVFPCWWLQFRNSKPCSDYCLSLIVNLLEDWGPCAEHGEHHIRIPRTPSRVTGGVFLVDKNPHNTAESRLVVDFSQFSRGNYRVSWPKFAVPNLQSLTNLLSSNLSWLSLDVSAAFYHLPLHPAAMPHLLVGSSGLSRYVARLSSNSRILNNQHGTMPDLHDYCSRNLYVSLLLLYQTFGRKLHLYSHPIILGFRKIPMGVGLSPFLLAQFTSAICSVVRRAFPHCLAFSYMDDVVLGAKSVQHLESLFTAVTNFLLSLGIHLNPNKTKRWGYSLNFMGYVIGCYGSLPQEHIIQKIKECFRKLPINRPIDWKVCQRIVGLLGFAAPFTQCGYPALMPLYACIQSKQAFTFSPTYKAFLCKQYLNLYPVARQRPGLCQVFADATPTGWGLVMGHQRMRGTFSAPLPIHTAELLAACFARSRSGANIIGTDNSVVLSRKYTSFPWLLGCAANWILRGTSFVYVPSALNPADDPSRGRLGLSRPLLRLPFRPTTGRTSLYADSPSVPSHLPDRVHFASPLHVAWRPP
Assay: HBV endogenous DNA polymerase assay, inhibition by nucleoside triphosphate analogs
Conditions: HBV DNA polymerase; radioactive triphosphate at 2 to 3 times Km, remaining nucleotides 50 uM; read-out: ID50 (concentration of triphosphate required to inhibit 50 percent of DNA polymerase)
PROPERTY_NAME: pIC50
// scale note: pIC50 = -log10(conc_M); give the bare number

Challenge: Lab note: need pIC50 with HBV DNA polymerase (Hepatitis B virus genotype D subtype ayw, UniProt P03156) for entry Nc1nc(=O)n([C@@H]2O[C@H](COP(=O)(O)OP(=O)(O)OP(=O)(O)O)[C@@H](O)[C@@H]2F)cc1I [FIACTP] , please look it up.
Response given: 7.30

---

Test: Solubility in water
Type: physicochemical
Conditions: water with 1 eq hcl, aqueous solvent with about one molar equivalent of hydrochloric acid; read-out: Solubility with added acid
PROPERTY_NAME: solubility

Challenge: Need solubility, item Nc1nc(=O)n([C@@H]2O[C@H](CO)[C@@H](O)[C@@H]2F)cc1I [FIAC]
Response given: ~250 mg/mL
